subject-of-test: human Cav2.2 (Homo sapiens, UniProt Q00975)
Sequence (Q00975 whole entry): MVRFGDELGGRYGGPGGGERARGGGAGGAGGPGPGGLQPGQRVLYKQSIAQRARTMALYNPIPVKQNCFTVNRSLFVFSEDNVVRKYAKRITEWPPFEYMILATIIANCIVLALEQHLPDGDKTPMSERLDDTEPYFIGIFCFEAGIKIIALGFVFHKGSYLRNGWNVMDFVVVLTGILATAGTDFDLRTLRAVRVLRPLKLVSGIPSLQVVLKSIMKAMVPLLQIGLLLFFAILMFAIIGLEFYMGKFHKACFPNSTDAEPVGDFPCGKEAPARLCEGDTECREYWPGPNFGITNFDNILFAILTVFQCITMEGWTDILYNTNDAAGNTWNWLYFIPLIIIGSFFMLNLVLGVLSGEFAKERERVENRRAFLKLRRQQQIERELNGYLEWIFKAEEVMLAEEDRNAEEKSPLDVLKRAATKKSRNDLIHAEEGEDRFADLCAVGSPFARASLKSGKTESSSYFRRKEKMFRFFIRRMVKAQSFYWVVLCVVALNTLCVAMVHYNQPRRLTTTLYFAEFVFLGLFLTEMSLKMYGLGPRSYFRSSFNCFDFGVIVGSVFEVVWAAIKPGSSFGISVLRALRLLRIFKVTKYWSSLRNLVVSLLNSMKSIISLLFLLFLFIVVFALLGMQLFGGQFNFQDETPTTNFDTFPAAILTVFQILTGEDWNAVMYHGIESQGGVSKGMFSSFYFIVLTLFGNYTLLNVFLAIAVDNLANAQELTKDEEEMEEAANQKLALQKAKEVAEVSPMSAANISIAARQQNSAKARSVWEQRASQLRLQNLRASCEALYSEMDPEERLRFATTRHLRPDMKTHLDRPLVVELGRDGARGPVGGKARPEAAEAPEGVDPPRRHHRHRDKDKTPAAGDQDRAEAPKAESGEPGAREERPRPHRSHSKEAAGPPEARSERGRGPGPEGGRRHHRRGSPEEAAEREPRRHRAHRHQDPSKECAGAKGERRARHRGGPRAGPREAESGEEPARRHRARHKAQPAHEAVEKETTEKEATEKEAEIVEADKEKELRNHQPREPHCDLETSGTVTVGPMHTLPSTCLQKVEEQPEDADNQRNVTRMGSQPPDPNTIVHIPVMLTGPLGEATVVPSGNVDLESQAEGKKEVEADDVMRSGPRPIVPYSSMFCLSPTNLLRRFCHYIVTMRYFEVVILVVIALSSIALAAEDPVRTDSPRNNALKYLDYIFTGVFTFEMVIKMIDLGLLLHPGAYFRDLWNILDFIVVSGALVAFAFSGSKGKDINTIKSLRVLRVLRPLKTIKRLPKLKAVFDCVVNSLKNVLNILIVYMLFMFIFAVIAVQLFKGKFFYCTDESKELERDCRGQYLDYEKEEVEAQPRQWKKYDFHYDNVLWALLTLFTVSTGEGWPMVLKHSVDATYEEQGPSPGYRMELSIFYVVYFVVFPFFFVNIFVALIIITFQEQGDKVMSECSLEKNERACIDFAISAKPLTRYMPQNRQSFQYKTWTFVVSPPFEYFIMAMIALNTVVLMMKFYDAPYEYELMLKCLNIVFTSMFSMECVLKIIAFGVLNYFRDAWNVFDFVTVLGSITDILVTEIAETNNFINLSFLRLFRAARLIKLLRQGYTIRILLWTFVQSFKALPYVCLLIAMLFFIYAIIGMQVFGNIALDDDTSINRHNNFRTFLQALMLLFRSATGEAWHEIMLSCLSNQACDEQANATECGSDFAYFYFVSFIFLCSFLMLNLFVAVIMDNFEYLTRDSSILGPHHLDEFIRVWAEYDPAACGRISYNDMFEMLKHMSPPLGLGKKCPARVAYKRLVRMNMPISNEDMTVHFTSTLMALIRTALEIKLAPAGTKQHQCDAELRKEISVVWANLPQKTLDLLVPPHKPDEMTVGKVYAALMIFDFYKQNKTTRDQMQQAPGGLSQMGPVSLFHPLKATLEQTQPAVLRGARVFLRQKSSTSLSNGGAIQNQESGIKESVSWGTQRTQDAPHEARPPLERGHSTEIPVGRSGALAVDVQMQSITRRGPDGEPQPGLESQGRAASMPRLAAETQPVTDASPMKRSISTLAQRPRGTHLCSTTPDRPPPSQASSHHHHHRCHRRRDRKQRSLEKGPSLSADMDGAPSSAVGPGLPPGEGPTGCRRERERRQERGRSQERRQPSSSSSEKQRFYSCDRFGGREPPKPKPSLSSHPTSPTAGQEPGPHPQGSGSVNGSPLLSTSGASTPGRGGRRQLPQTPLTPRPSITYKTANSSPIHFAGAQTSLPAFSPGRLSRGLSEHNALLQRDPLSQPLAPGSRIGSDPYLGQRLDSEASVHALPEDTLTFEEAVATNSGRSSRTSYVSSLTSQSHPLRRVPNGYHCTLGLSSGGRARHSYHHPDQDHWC
Sequence (P54289 25-946 partner limits assumed): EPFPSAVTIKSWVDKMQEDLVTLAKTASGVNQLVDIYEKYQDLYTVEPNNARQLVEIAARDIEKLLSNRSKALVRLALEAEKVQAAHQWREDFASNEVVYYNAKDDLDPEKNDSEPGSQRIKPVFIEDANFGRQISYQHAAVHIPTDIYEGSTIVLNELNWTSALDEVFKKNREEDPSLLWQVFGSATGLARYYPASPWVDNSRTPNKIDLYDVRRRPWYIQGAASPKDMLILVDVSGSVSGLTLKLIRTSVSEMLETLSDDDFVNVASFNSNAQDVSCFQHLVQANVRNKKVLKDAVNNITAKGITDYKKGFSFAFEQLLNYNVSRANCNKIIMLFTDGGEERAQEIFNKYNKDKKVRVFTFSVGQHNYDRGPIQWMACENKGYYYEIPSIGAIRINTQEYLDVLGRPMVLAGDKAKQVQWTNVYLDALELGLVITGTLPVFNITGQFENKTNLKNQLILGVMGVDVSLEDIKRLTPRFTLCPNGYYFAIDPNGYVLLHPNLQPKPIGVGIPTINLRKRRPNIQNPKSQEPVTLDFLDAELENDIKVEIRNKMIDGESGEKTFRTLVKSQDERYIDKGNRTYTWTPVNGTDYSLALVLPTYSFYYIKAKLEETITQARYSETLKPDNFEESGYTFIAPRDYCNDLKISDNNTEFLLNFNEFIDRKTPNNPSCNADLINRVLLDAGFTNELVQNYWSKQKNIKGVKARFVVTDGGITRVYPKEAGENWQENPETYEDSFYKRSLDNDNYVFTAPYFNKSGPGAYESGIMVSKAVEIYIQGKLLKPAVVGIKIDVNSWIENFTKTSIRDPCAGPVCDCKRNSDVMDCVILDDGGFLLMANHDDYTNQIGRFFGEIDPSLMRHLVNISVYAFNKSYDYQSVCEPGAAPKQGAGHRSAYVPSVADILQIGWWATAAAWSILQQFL
Sequence (P54289 947-1103 partner limits assumed): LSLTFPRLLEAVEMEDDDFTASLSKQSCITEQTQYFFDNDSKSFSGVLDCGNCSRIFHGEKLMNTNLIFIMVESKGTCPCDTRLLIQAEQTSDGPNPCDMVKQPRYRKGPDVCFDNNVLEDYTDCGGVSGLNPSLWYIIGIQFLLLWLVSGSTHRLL
Sequence (P54284 whole entry partner): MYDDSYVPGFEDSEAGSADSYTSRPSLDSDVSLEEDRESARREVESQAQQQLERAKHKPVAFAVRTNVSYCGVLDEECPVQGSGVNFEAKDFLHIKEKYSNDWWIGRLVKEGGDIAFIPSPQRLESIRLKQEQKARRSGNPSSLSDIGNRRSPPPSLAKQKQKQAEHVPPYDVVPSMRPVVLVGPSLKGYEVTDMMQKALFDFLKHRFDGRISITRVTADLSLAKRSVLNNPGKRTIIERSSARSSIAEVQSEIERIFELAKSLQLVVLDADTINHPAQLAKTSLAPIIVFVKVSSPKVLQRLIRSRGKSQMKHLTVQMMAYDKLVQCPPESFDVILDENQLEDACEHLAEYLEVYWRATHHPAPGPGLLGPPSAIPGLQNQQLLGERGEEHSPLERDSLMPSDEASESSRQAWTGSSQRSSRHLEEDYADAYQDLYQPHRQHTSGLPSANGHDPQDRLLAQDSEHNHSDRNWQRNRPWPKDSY
protocol-notes: Assessment of calcium channel activity using FLIPR (Ca2+ influx in IMR32 cells)
Type: cell-based
condition-summary: IMR-32, @ 10 μM, 3 minute pre-incubation (*), read-out: percent inhibition
Label rule, in plain words: inhibition at 10 µM of 60% and up is yes, under 60% is no.

Reference set (5 entries):
# compound, category
measured = [
    ("COc1cccc(CN2C[C@H]3CC[C@H](NC(=O)C(c4ccccc4)C(C)C)[C@H]3C2)c1 (stereo partly shown) [Example 90]", "yes"),
    ("CC(C)N(C(=O)N[C@H]1CC[C@@H]2CN(Cc3ccccc3)C[C@@H]21)c1ccccc1 [Example 219]", "yes"),
    ("C[C@H](C(=O)N[C@@H]1CC[C@H]2CN(Cc3ccccc3)C[C@H]21)c1ccccc1 [Example 19]", "no"),
    ("CC(C)C(C(=O)N[C@H]1CC[C@@H]2CN(C)C[C@@H]21)c1ccccc1 (stereo partly shown) [Example 84]", "no"),
    ("CC[C@@H](C(=O)N[C@H]1CC[C@@H]2CN(Cc3ccccc3)C[C@@H]21)c1ccccc1 [Example 36]", "no"),
]

[ask] Record CC(C)C(C(=O)N[C@H]1CC[C@@H]2CN(C(=O)c3ccccc3)C[C@@H]21)c1ccccc1 (stereo partly shown) [Example 218] ; criterion: inhibition at 10 µM no lower than 60%. Met?
[reply] no

[ask] Record CC(C)C(C(=O)N1C[C@H]2CC[C@H](NCc3ccccc3)[C@H]2C1)c1ccccc1 (relative stereo) [Example 216] ; criterion: inhibition at 10 µM no lower than 60%. Met?
[reply] yes

====

System: Sprague Dawley rats
protocol-notes: Capsaicin induced secondary mechanical hyperalgesia model
Type: in vivo
condition-summary: po, 1 h, read-out: % inhibition @ 30 mg/kg p.o., 60 minutes before testing, secondary mechanical hyperalgesia 180 minutes after intraplantar capsaicin, rat
Label rule, in plain words: inhibition in vivo at 30 mg/kg of 60% and up is met, under 60% is not met.

# item-smiles, category
data = [
    ("CC(C)(C)C[C@H](NCC1CC1)C(=O)N[C@H]1CC[C@@H]2CN(c3cccc(C(F)(F)F)n3)C[C@@H]21", "not met"),
]

[ask] Record `CC(C)N[C@@H](CC(C)(C)C)C(=O)N[C@H]1CC[C@@H]2CN(C(=O)[C@H](CC(C)(C)C)NC(C)C)C[C@@H]21` ; criterion: inhibition in vivo at 30 mg/kg no lower than 60%. Met?
[reply] not met

[ask] Record `CCC[C@H](NC)C(=O)N[C@H]1CC[C@@H]2CN(S(=O)(=O)c3ccc(C(F)(F)F)cc3)C[C@@H]21` ; criterion: inhibition in vivo at 30 mg/kg no lower than 60%. Met?
[reply] not met

[ask] Record `O=C(N[C@H]1CC[C@@H]2CN(Cc3cccc(C(F)(F)F)c3)C[C@@H]21)C(C1CCCCC1)C1CCCCC1` ; criterion: inhibition in vivo at 30 mg/kg no lower than 60%. Met?
[reply] met

====

We begin with a simple list: items and their reported IC50.
subject-of-test: UniProt Q00975
protocol-notes: Assessment of calcium channel activity using FLIPR (Ca2+ influx in IMR32 cells)
Assay type: cell-based
condition-summary: 60 minute pre-incubation with compound, 2 μM nifedipine, depolarized with 80 mM KCl
Kindly provide the numeric value in nM only, without the unit symbol.

Solved entries (count: 5):
# molecule, unit-descriptor, observed-measurement
measured = [
    ("O=C(CC(c1ccccc1)c1ccccc1)N[C@H]1CC[C@H]2CN(Cc3cccc(C(F)(F)F)c3)C[C@H]21 (relative stereo) [Example 131]", "nM", 700),
    ("CCCN(CCC)[C@H]1CC[C@@H]2CN(S(=O)(=O)c3ccc(C(F)(F)F)cc3)C[C@@H]21 [Example 291]", "nM", 4400),
    ("CCC[C@@H](C(=O)N[C@H]1CC[C@@H]2CN(S(=O)(=O)c3ccc(C(F)(F)F)cc3)C[C@@H]21)N(C)C(=O)OC(C)(C)C [Example 259]", "nM", 1140),
    ("O=C(N[C@@H]1CC[C@H]2CN(S(=O)(=O)c3cccc(C(F)(F)F)c3)C[C@H]21)[C@@H]1CCCN1 [Example 396]", "nM", 3550),
    ("CCC[C@@H](C(=O)N[C@@H]1CC[C@@H]2CN(Cc3ccccc3)C[C@@H]21)N(C)C(=O)OC(C)(C)C [Example 240]", "nM", 2670),
]

[ask] State the recorded IC50 for this entry: CN[C@@H](CC(C)(C)C)C(=O)N(CC1CC1)[C@H]1CC[C@@H]2CN(S(=O)(=O)c3ccc(C(F)(F)F)cc3)C[C@@H]21 [Example 436]
[reply] 1770

[ask] State the recorded IC50 for this entry: CC(C)C(C(=O)N[C@H]1CC[C@@H]2CN(CCCc3ccccc3)C[C@@H]21)c1ccccc1 (stereo partly shown) [Example 105]
[reply] 1500

====

We begin with a simple list: items and their reported log10 of IC50.
subject-of-test: human Cav2.2 (Homo sapiens, UniProt Q00975)
protocol-notes: Assessment of calcium channel activity using FLIPR (Ca2+ influx in IMR32 cells)
Format: cell-based
condition-summary: 60 minute pre-incubation with compound, 2 μM nifedipine, depolarized with 80 mM KCl
For clarity, the numbers are log10 values of IC50 expressed in µM.

Solved entries (count: 5):
# compound, measurement-label, observed-measurement
measured = [
    ("CC(C)C[C@H](NC(=O)OC(C)(C)C)C(=O)N[C@@H]1CC[C@@H]2CN(Cc3cccc(C(F)(F)F)c3)C[C@@H]21 (relative stereo) [Example 137]", "log10 of IC50", -0.22),
    ("O=C(N[C@@H]1CC[C@H]2CN(CCCCCC(c3ccc(F)cc3)c3ccc(F)cc3)C[C@H]21)C(C1CCCCC1)C1CCCCC1 [Example 78]", "log10 of IC50", -0.40),
    ("O=C(N[C@H]1CC[C@H]2CN(Cc3cccc(OC(F)(F)F)c3)C[C@H]21)C(C1CCCCC1)C1CCCCC1 [Example 63]", "log10 of IC50", -0.22),
    ("O=C(N[C@H]1CC[C@@H]2CN(S(=O)(=O)c3cccc(C(F)(F)F)c3)C[C@@H]21)[C@@H]1CCCCN1 [Example 390]", "log10 of IC50", 0.39),
    ("CCC[C@H](NC)C(=O)N[C@H]1CC[C@@H]2CN(S(=O)(=O)c3cc(C(F)(F)F)ccc3Cl)C[C@@H]21 [Example 553]", "log10 of IC50", 0.29),
]

[ask] State the recorded log10 of IC50 for this entry: CCC[C@H](NC(=O)OC1CCCC1)C(=O)N[C@H]1CC[C@@H]2CN(Cc3ccc(C(F)(F)F)cc3)C[C@@H]21 [Example 527]
[reply] 0.36

[ask] State the recorded log10 of IC50 for this entry: CC(C)(C)C[C@H](N)C(=O)N[C@H]1CC[C@@H]2CN(S(=O)(=O)c3cc(C(F)(F)F)ccc3Cl)C[C@@H]21 [Example 428]
[reply] 0.36

[ask] State the recorded log10 of IC50 for this entry: CN[C@H](C(=O)N[C@@H]1CC[C@H]2CN(Cc3cccc(C(F)(F)F)c3)C[C@H]21)C(C)C [Example 373]
[reply] 0.88

[ask] State the recorded log10 of IC50 for this entry: CCCC[C@H](NC)C(=O)N[C@H]1CC[C@@H]2CN(S(=O)(=O)c3cccc(C(F)(F)F)c3)C[C@@H]21 [Example 393]
[reply] 0.03

[ask] State the recorded log10 of IC50 for this entry: CC(C)C[C@H](NC(C)C)C(=O)N[C@H]1CC[C@@H]2CN(S(=O)(=O)c3cccc(C(F)(F)F)c3)C[C@@H]21 [Example 496]
[reply] -0.28

[ask] State the recorded log10 of IC50 for this entry: CC(C)(C)C[C@H](NC(=O)OC(C)(C)C)C(=O)N[C@H]1CC[C@@H]2CN(c3cnc(S(C)(=O)=O)nc3)C[C@@H]21 [Example 265]
[reply] 0.42

[ask] State the recorded log10 of IC50 for this entry: FC(F)(F)c1cccc(CN2C[C@H]3CC[C@H](NC(c4ccccc4)c4ccccc4)[C@H]3C2)c1 [Example 466]
[reply] 0.37

[ask] State the recorded log10 of IC50 for this entry: CC(C)(C)OC(=O)N[C@H](C(=O)N[C@H]1CC[C@@H]2CN(S(=O)(=O)c3ccc(C(F)(F)F)cc3)C[C@@H]21)C(C)(C)C [Example 341]
[reply] 0.30

====

We begin with a simple list: items and their reported IC50.
subject-of-test: human Cav2.2 (Homo sapiens, UniProt Q00975)
protocol-notes: Assessment of calcium channel activity using FLIPR (Ca2+ influx in IMR32 cells)
Type: cell-based
condition-summary: 60 minute pre-incubation with compound, 2 μM nifedipine, depolarized with 80 mM KCl
Kindly provide the numeric value in µM only, without the unit symbol.

Solved entries (count: 4):
# compound, observed-measurement
rows = [
    ("O=C(N[C@H]1CC[C@H]2CN(Cc3cccc(C(F)(F)F)c3)C[C@H]21)C1CCCCC1 (relative stereo) [Example 127]", 1.5),
    ("CCCC[C@@H](C(=O)N[C@H]1CC[C@@H]2CN(Cc3ccccc3)C[C@@H]21)N(C)C(=O)OC(C)(C)C [Example 227]", 3.17),
    ("CC(C)C[C@H](NCC(C)(C)C)C(=O)N[C@H]1CC[C@@H]2CN(S(=O)(=O)c3cccc(C(F)(F)F)c3)C[C@@H]21 [Example 252]", 0.64),
    ("CCC(CC)C(=O)N[C@H]1CC[C@H]2CN(Cc3cccc(C(F)(F)F)c3)C[C@H]21 (relative stereo) [Example 125]", 2.8),
]

Next up:
[ask] State the recorded IC50 for this entry: CN[C@@H](CC(C)C)C(=O)N[C@@H]1CC[C@@H]2CN(S(=O)(=O)c3ccc(C(F)(F)F)cc3)C[C@@H]21 [Example 421]
[reply] 2.56
